# Test: Caco-2 permeability assay
# Assay type: in vitro ADME, human
# Settings: human, Caco-2, pH 7.4, Caco-2, 1.0 μM, pH 7.4 in both compartments; read-out: Mean Recovery (A-B)
# From the text: Caco-2 cell permeability data of compound CD3-403 (apical to basal (A-B) and basal to apical (B-A), measured at pH 7.4 in both apical and basal compartment)
Metric name: recovery at 1 μM (%)
Return type: number; implicit unit %.

The compound listed as CC(C)(C)NC[C@@H](O)COc1cccc2[nH]cc(CC(N)=O)c12 [CD3-403] has a reported recovery at 1 μM of 83

###

Listing of entries alongside the reported IC50.
# Target: human β2-AR (Homo sapiens)
# Sequence (P07550 whole entry): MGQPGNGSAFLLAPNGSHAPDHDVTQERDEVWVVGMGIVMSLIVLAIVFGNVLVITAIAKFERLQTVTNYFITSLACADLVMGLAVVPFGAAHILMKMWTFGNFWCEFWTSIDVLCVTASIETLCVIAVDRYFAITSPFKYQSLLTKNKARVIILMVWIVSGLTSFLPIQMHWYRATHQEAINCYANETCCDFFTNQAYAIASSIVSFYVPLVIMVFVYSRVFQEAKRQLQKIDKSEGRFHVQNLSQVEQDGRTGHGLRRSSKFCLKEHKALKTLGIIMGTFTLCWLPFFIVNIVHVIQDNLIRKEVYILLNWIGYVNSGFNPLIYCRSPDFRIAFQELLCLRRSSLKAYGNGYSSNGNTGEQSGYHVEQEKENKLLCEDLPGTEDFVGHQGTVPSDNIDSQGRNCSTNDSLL
# Test: Calcium response (Fluo-4) in Flp-In-293 cells stably transfected with ADRB2 and GNA15
# Assay type: cell-based
# Settings: concentration response curve, 2nd experiment; read-out: IC50 (nM) 2nd experiment
Return type: number; implicit unit nM.

Compound structure: Cc1c[nH]c2cccc(OC[C@H](O)CNC(C)(C)C)c12
Recorded number: 0.6
--
Compound structure: CC(C)(C)NC[C@@H](O)COc1cccc2[nH]cc(CC(N)=O)c12
Recorded number: 46

Query compound follows.
# lookup: `CC(C)NC[C@@H](O)COc1cccc2[nH]cc(CC(=O)N(C)C)c12` on human β2-AR (Homo sapiens), IC50 = 78

###

# Tested on: Caco-2 cells
# Test: Caco-2 permeability assay
# Assay type: in vitro ADME, human
# Settings: test concentration 1.0E−06 M
Metric name: MeanRecovery (A-B) (%)
Return type: number; implicit unit %.

Known MeanRecovery (A-B) results, listed for orientation:
Molecule: Cc1c[nH]c2cccc(OC[C@H](O)CNC(C)(C)C)c12 [CD3-T1]
Metric name: MeanRecovery (A-B)
Unit: %
Recorded number: 71
--
Molecule: CC(C)NC[C@@H](O)COc1cccc2[nH]cc(CC(=O)N(C)C)c12 [CD3-T3]
Metric name: MeanRecovery (A-B)
Unit: %
Recorded number: 76

The molecule listed as CC(C)(C)NC[C@@H](O)COc1cccc2[nH]cc(CC(N)=O)c12 [CD3-403] has a reported MeanRecovery (A-B) of 83

###

# Test: Caco-2 permeability assay
# Type: in vitro ADME, human
# Settings: human, Caco-2, pH 7.4, Caco-2, 1.0 μM, pH 7.4 in both compartments; read-out: Mean Recovery (B-A)
Metric name: recovery at 1 μM (%)
Return type: number; implicit unit %.

The molecule listed as CC(C)(C)NC[C@@H](O)COc1cccc2[nH]cc(CC(N)=O)c12 [CD3-403] has a reported recovery at 1 μM of 94

###

# Target: human β2-AR (Homo sapiens)
# Test: Calcium response (Fluo-4) in Flp-In-293 cells stably transfected with ADRB2 and GNA15
# Type: cell-based
# Settings: concentration response curve, old stock; read-out: IC50 (nM) old stock
Metric name: IC50 (nM)
Return type: number; implicit unit nM.

The compound listed as `CC(C)(C)NC[C@@H](O)COc1cccc2[nH]cc(CC(N)=O)c12` has a reported IC50 of 40

###

# Test: Caco-2 permeability assay
# Format: in vitro ADME, human
# Settings: human; Caco-2, 1.0 μM, pH 7.4 in both compartments
Metric name: Papp B→A at 1 μM
Could you write the number and then its unit?

The compound listed as CC(C)(C)NC[C@@H](O)COc1cccc2[nH]cc(CC(N)=O)c12 [CD3-403] has a reported Papp B→A at 1 μM of 1.3 ×10⁻⁶ cm/s
